Assay: Selectivity index, ratio of CC50 for Huh5-2 cells to EC50 for HCV genotype 1b infected in Huh5-2 cells
Design: species or system Huh-5-2
Consider the following molecules and their measured Ratio CC50/EC50 readings.
Output spec: single numeric token, no unit.

Reported Ratio CC50/EC50 for COc1ccccc1-c1nc2ccc(-c3ccsc3)nn2c1-c1cccc(-c2cccc(O)c2)c1 was 20.8

Sure, the documented Ratio CC50/EC50 for CC(C)(C)c1nc2ccc(-c3ccsc3)nn2c1-c1cccc(-c2ccco2)c1 is 4.8

For reference, reported Ratio CC50/EC50 for COc1ccccc1-c1cccc(-c2c(-c3ccc(F)cc3)nc3ccccn23)c1 stands at 2.8

Looking up COc1ccccc1-c1nc2ccc(-c3ccsc3)cn2c1-c1cccc(-c2ccccc2)c1 , I found its Ratio CC50/EC50 recorded as 3.3

The measured Ratio CC50/EC50 associated with CC(C)(C)c1nc2ccc(-c3ccsc3)nn2c1-c1cccc(-c2ccccc2)c1 reads 2.8

// field: Ratio CC50/EC50; key: Fc1ccc(-c2nc3ccccn3c2-c2cccc(-c3ccsc3)c2)cc1 ; value = 5.1

So for CC(C)(C)c1nc2ccc(-c3ccsc3)nn2c1-c1cccc(-c2cccc(O)c2)c1 , the logged Ratio CC50/EC50 turned out to be 5.2

For record Fc1ccc(-c2nc3ccccn3c2-c2cccc(-c3ccc(Cl)cc3)c2)cc1 the listed Ratio CC50/EC50 is 9.7

Attribution: ChEMBL document CHEMBL2390820
